B1: USP39 (parent)
chain: TLSEAYIQIWKRRDNDETNQQGA

- Variants of: B1
- Procedure Text: protein stability index of a GFP-peptide fusion (GPS, HEK-293T) (PSI 1-6); higher = more stable;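 note: lentivirally expressed fusions sorted by FACS into six bins by GFP to DsRed ratio, PSI derived from sequencing read proportions per bin multiplied by bin number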
- Condition Parameters: c terminus: native
Measured Metric: protein stability index
Format: numeric value only, no unit, no commentary.

Look over these answered cases.
K11E ... 1.92
N19A ... 2.38
R13C ... 2.06
D14N ... 1.71
R12E ... 2.65

For N15Y , what is its reported protein stability index?
1.28

Fill in the blank: the reported protein stability index of I9C is ____.
2.12

Given A5D , state its recorded protein stability index.
3.45

Quick one: protein stability index of E4P ?
3.17

What does the record list as protein stability index for T18L ?
2.06

State the recorded protein stability index for this entry: W10V
3.58

Which protein stability index is reported for this variant? I9R
3.3

Name the recorded protein stability index for S3A .
3.23

Which protein stability index value is on record for E4R ?
2.97

What protein stability index value was documented for this variant, Q8H ?
2.24
